Tested on: Saccharomyces cerevisiae
Experiment: fraction of cells in G1 phase (DNA content, flow cytometry); higher = more cells with unreplicated DNA (G1 delay)
Conditions: temperature: 30 C; YPD; JTY2953 pdr5 snq2 (sensitized); drug added to: actively dividing cells; 6 h
Below, each of the compounds is paired with its reported fraction of cells in G1 phase value.

{"compound": "C[C@]12Cc3c[nH]nc3C[C@@H]1CC[C@@H]1[C@@H]2CC[C@@]2(C)[C@H]1CC[C@]2(C)O [Stanozolol] (60.8824 µM)", "target.system": "Saccharomyces cerevisiae", "fraction of cells in G1 phase": 0.497}
{"compound": "C[C@]12CC[C@H](O)CC1=CC[C@@H]1[C@@H]2CC[C@]2(C)C(=O)CC[C@@H]12 [Dehydroepiandrosterone] (69.34 µM)", "target.system": "Saccharomyces cerevisiae", "fraction of cells in G1 phase": 0.719}
{"compound": "O=c1[nH]c2ccccc2n1C1CCN(CCCC(c2ccc(F)cc2)c2ccc(F)cc2)CC1 [Pimozide] (43.3313 µM)", "target.system": "Saccharomyces cerevisiae", "fraction of cells in G1 phase": 0.344}
